src = ChEMBL document CHEMBL4024771

biological target: Histone-lysine N-methyltransferase EZH1 (Homo sapiens, UniProt Q92800); experiment: Binding affinity to EZH1 (unknown origin)
Sequence (Q92800 whole entry): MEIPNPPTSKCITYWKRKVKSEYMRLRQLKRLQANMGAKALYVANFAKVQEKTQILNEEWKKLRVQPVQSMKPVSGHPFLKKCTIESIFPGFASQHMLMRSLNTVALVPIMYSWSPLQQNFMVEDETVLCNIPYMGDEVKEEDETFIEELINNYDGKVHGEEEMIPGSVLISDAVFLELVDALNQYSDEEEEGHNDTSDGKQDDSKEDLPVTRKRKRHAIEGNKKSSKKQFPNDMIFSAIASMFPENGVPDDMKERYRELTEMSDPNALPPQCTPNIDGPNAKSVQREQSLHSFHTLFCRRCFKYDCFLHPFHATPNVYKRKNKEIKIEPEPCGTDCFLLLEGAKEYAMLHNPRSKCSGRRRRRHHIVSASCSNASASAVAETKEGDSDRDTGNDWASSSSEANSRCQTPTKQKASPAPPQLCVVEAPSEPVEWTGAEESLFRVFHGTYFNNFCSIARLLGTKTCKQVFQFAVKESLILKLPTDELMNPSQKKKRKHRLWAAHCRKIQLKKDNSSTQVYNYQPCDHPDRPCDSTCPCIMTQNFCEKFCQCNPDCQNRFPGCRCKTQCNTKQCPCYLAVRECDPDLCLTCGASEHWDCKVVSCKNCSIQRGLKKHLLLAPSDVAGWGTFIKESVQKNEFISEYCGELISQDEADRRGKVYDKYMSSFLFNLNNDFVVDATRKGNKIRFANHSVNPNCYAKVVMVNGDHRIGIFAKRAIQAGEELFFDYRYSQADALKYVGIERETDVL
experimental_endpoint: Ki (nM)
Numeric answer only, unit nM assumed.

Measured Ki, COc1cc(C)[nH]c(=O)c1CN1CCc2c(Cl)cc([C@H](OC)C3COC3)c(Cl)c2C1=O : 70

====

biological target: UniProt Q15910; test: Inhibition of EZH2 in human KARPAS422 cells assessed as reduction in H3K27me3 level after 72 hrs by ELISA
Sequence (Q15910 whole entry): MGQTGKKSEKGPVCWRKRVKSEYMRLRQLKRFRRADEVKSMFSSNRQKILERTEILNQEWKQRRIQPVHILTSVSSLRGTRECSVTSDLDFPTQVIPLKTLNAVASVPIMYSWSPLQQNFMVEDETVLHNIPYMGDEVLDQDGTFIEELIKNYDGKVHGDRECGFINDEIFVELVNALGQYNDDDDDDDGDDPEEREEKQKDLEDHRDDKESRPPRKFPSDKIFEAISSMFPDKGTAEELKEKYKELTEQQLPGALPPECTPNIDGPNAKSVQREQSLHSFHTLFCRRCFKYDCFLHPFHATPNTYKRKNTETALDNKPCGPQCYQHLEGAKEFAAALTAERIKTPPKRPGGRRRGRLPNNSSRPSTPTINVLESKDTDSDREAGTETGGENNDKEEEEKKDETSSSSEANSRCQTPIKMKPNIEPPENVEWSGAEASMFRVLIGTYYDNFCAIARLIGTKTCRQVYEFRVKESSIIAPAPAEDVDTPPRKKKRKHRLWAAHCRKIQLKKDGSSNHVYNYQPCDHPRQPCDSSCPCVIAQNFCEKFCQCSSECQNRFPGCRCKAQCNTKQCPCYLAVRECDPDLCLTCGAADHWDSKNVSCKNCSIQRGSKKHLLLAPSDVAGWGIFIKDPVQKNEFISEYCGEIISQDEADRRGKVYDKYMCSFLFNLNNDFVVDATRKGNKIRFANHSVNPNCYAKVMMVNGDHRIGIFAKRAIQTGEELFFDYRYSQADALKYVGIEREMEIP
experimental_endpoint: pIC50
Just the number, please; pIC50 means minus log10 of the concentration in mol/L.

Completed entries (count: 10):
[
  {
    "molecule": "COC(c1cc(Cl)c2c(c1Cl)C(=O)N(Cc1c(C)cc(C)[nH]c1=O)CC2)C1CCN(C(=O)CO)CC1 (single isomer, unassigned; (-))",
    "assay_system": "UniProt Q15910",
    "pIC50": 6.13
  },
  {
    "molecule": "COC(c1cc(Cl)c2c(c1Cl)C(=O)N(Cc1c(C)cc(C)[nH]c1=O)CC2)C1CCN(C)CC1 (single isomer, unassigned; (-))",
    "assay_system": "UniProt Q15910",
    "pIC50": 5.95
  },
  {
    "molecule": "COc1cc(C)[nH]c(=O)c1CN1CCc2c(Cl)cc(C(OC)C3(C)COC3)c(Cl)c2C1=O (stereo in doubt; (-)-24b)",
    "assay_system": "UniProt Q15910",
    "pIC50": 6.60
  },
  {
    "molecule": "COc1cc(C)[nH]c(=O)c1CN1CCc2c(Cl)cc(C(OC)C3CCOC3)c(Cl)c2C1=O (stereo in doubt; 22b)",
    "assay_system": "UniProt Q15910",
    "pIC50": 7.80
  },
  {
    "molecule": "CCC(CO)c1cc(Cl)c2c(c1Cl)C(=O)N(Cc1c(C)cc(C)[nH]c1=O)CC2 (single isomer, unassigned; (+))",
    "assay_system": "UniProt Q15910",
    "pIC50": 6.86
  },
  {
    "molecule": "Cc1cc(C)c(CN2CCc3c(Cl)cc([C@@H](CO)[C@@H]4CCOC4)c(Cl)c3C2=O)c(=O)[nH]1",
    "assay_system": "UniProt Q15910",
    "pIC50": 5.54
  },
  {
    "molecule": "COc1cc(C)[nH]c(=O)c1CN1CCc2c(Cl)cc(C(OC)C3CCOC3)c(Cl)c2C1=O (single isomer, unassigned; (+))",
    "assay_system": "UniProt Q15910",
    "pIC50": 8.40
  },
  {
    "molecule": "Cc1cc(C)c(CN2CCc3c(Cl)cc(C(CO)C4CCOC4)c(Cl)c3C2=O)c(=O)[nH]1 (stereo in doubt; (-)-6b)",
    "assay_system": "UniProt Q15910",
    "pIC50": 7.82
  },
  {
    "molecule": "COc1cc(C)[nH]c(=O)c1CN1CCc2c(Cl)cc([C@H](OC)C3COC3)c(Cl)c2C1=O",
    "assay_system": "UniProt Q15910",
    "pIC50": 8.40
  },
  {
    "molecule": "Cc1cc(C)c(CN2CCc3c(Cl)cc(C(CO)C4CCOCC4)c(Cl)c3C2=O)c(=O)[nH]1 (stereo in doubt; (+)-8b)",
    "assay_system": "UniProt Q15910",
    "pIC50": 4.83
  }
]

Measured pIC50, COc1cc(C)[nH]c(=O)c1CN1CCc2c(Cl)cc(-c3c(C)noc3C)c(Cl)c2C1=O : 8.10

Measured pIC50, Cc1cc(C)c(CN2CCc3c(Cl)cc([C@H](CO)[C@@H]4CCCO4)c(Cl)c3C2=O)c(=O)[nH]1 : 7.39

Measured pIC50, COC(c1cc(Cl)c2c(c1Cl)C(=O)N(Cc1c(C)cc(C)[nH]c1=O)CC2)C1CCOCC1 (single isomer, unassigned; (+)) : 8.05

Measured pIC50, COC(c1cc(Cl)c2c(c1Cl)C(=O)N(Cc1c(C)cc(C)[nH]c1=O)CC2)C1CCOC1 (single isomer, unassigned; (+)) : 7.33
